# target or system: Adenosine receptor A2b (Homo sapiens, UniProt P29275)
# Sequence (P29275 whole entry): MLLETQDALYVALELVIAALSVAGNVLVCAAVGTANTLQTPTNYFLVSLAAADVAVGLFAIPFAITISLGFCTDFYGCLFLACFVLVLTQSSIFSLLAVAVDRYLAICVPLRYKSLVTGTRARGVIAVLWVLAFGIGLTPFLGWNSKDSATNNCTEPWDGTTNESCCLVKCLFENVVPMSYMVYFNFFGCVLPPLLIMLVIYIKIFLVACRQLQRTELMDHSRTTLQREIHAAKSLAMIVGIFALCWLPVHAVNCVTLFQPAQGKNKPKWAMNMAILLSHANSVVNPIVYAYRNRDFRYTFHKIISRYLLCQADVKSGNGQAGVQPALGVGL
pKi: −log10 of the molar value.
Class T: pKi at least 8. Class F: pKi below 8.

In plain terms: is recorded pKi at least 8 for COc1cccc(CNC(=O)COc2ccc(-c3cc4c([nH]3)c(=O)n(C)c(=O)n4C)cc2)c1 ?
F

In plain terms: is recorded pKi at least 8 for CCCn1c(=O)c2[nH]c(-c3ccc(OC(C)C(=O)NCc4ccc(Cl)cc4)cc3)cc2n(CCC)c1=O (stereo not drawn) ?
T

In plain terms: is recorded pKi at least 8 for CCOC(=O)COc1ccc(-c2cc3c([nH]2)c(=O)n(C)c(=O)n3CCCOC)cc1 ?
F

In plain terms: is recorded pKi at least 8 for CCCn1c(=O)c2[nH]c(-c3ccc(OCC(=O)Nc4ccc(C(N)=O)cc4)cc3)cc2n(CCC)c1=O ?
F

In plain terms: is recorded pKi at least 8 for Cn1c(=O)c2[nH]c(-c3ccc(OCC(=O)NCc4ccc(Cl)cc4)cc3)cc2n(C)c1=O ?
T

In plain terms: is recorded pKi at least 8 for CCCn1c(=O)c2nc(-c3cc(OCC(=O)c4ccc(C(C)=O)cc4)nn3C)[nH]c2n(CCC)c1=O ?
F

In plain terms: is recorded pKi at least 8 for CCCn1c(=O)c2[nH]c(-c3ccc(OCC(=O)Nc4ccc(C(=O)c5ccccc5)cc4)cc3)cc2n(CCC)c1=O ?
F
